// reported pIC50 per item
Biological target: HIV TAR RNA
Experiment: Ethidium bromide displacement
Settings: read-out: IC50 (ethidium bromide displacement); 100 mM KCl, 10 mM SC, 0.5 mM EDTA, pH 6.8; HIV TAR RNA 50 nM/strand
pIC50: −log10 of the molar value.

{"Compound": "NC[C@@H]1O[C@H](O[C@H]2[C@@H](O)[C@H](O[C@@H]3[C@@H](O)[C@H](N)C[C@H](N)[C@H]3O[C@H]3O[C@H](CN)[C@@H](O)[C@H](O)[C@H]3N)O[C@@H]2Cn2cc(CCCCc3cn(C[C@H]4O[C@@H](O[C@@H]5[C@@H](O)[C@H](N)C[C@H](N)[C@H]5O[C@H]5O[C@H](CN)[C@@H](O)[C@H](O)[C@H]5N)[C@H](O)[C@@H]4O[C@H]4O[C@@H](CN)[C@@H](O)[C@H](O)[C@H]4N)nn3)nn2)[C@H](N)[C@@H](O)[C@@H]1O", "pIC50": 7.09}
{"Compound": "NC[C@@H]1O[C@H](O[C@H]2[C@@H](O)[C@H](O[C@@H]3[C@@H](O)[C@H](N)C[C@H](N)[C@H]3O[C@H]3O[C@H](CN)[C@@H](O)[C@H](O)[C@H]3N)O[C@@H]2Cn2cc(-c3cccc(-c4cn(C[C@H]5O[C@@H](O[C@@H]6[C@@H](O)[C@H](N)C[C@H](N)[C@H]6O[C@H]6O[C@H](CN)[C@@H](O)[C@H](O)[C@H]6N)[C@H](O)[C@@H]5O[C@H]5O[C@@H](CN)[C@@H](O)[C@H](O)[C@H]5N)nn4)c3)nn2)[C@H](N)[C@@H](O)[C@@H]1O", "pIC50": 7.44}
{"Compound": "NC[C@@H]1O[C@H](O[C@H]2[C@@H](O)[C@H](O[C@@H]3[C@@H](O)[C@H](N)C[C@H](N)[C@H]3O[C@H]3O[C@H](CN)[C@@H](O)[C@H](O)[C@H]3N)O[C@@H]2Cn2cc(COCc3cn(C[C@H]4O[C@@H](O[C@@H]5[C@@H](O)[C@H](N)C[C@H](N)[C@H]5O[C@H]5O[C@H](CN)[C@@H](O)[C@H](O)[C@H]5N)[C@H](O)[C@@H]4O[C@H]4O[C@@H](CN)[C@@H](O)[C@H](O)[C@H]4N)nn3)nn2)[C@H](N)[C@@H](O)[C@@H]1O", "pIC50": 7.25}
{"Compound": "NC[C@@H]1O[C@H](O[C@H]2[C@@H](O)[C@H](O[C@@H]3[C@@H](O)[C@H](N)C[C@H](N)[C@H]3O[C@H]3O[C@H](CN)[C@@H](O)[C@H](O)[C@H]3N)O[C@@H]2CO)[C@H](N)[C@@H](O)[C@@H]1O [Neomycin, Neomycin B tri-sulfate, reference compound]", "pIC50": 6.38}
